Tested on: Plasmodiophora brassicae
Assay: Fungicidal activity against clubroot disease causing Plasmodiophora brassicae infested Brassica campestris under greenhouse condition assessed as disease incidence at 4 kg a.i/ha treated to soil measured after 40 to 50 days
Type: functional
EXPERIMENTAL_ENDPOINT: Activity (%)

COC(=O)c1ccc(NS(=O)(=O)c2cccc(C(F)(F)F)c2)cc1 ... 0
CN(C)C(=O)c1ccc(NS(=O)(=O)c2cccc(C(F)(F)F)c2)c(Cl)c1 ... 0
CN(C)C(=O)c1ccc(NS(=O)(=O)c2ccc(Cl)c(Cl)c2)c(Cl)c1 ... 0
Cc1ccc(S(=O)(=O)Nc2cc([N+](=O)[O-])ccc2Cl)cc1[N+](=O)[O-] ... 26
N#Cc1ccc(NS(=O)(=O)c2ccc(Cl)c(Cl)c2)cc1 ... 0
Cc1ccc(S(=O)(=O)Nc2ccc(F)c([N+](=O)[O-])c2)cc1[N+](=O)[O-] ... 51
Cc1ccc(NS(=O)(=O)c2ccc([N+](=O)[O-])cc2)c([N+](=O)[O-])c1 ... 0

====

System: Plasmodiophora brassicae
Experiment: Fungicidal activity against clubroot disease causing Plasmodiophora brassicae infested Brassica campestris under greenhouse condition assessed as disease incidence at 4 kg a.i/ha treated to soil measured after 40 to 50 days
Format: functional
EXPERIMENTAL_ENDPOINT: Activity (%)

N#Cc1cccc(S(=O)(=O)Nc2ccc(C(F)(F)F)cc2Cl)c1 ... 51
Cc1ccc([N+](=O)[O-])cc1NS(=O)(=O)c1ccc(Cl)c([N+](=O)[O-])c1 ... 0
CCOC(=O)c1ccc(NS(=O)(=O)c2cccc(C(F)(F)F)c2)cc1 ... 0

====

Test system: Plasmodiophora brassicae
Assay: Fungicidal activity against clubroot disease causing Plasmodiophora brassicae infested Brassica campestris under greenhouse condition assessed as disease incidence at 4 kg a.i/ha treated to soil measured after 40 to 50 days
Format: functional
Known Activity of a selection of compounds
EXPERIMENTAL_ENDPOINT: Activity (%)

Cc1ccc(S(=O)(=O)Nc2ccc(Br)cc2)cc1 ... 0
N#Cc1cccc(S(=O)(=O)Nc2ccc([N+](=O)[O-])cc2Cl)c1 ... 0
Cc1ccc(S(=O)(=O)Nc2ccc([N+](=O)[O-])cc2)cc1[N+](=O)[O-] ... 26
Cc1cc([N+](=O)[O-])ccc1NS(=O)(=O)c1ccc(C)c([N+](=O)[O-])c1 ... 0
N#Cc1cccc(S(=O)(=O)Nc2ccc(C(F)(F)F)cc2)c1 ... 26

====

System: Plasmodiophora brassicae
Assay: Fungicidal activity against clubroot disease causing Plasmodiophora brassicae infested Brassica campestris under greenhouse condition assessed as disease incidence at 4 kg a.i/ha treated to soil measured after 40 to 50 days
Type: functional
EXPERIMENTAL_ENDPOINT: Activity (%)

O=[N+]([O-])c1cccc(S(=O)(=O)Nc2ccc([N+](=O)[O-])cc2Cl)c1 ... 71
N#Cc1cccc(S(=O)(=O)Nc2ccc(Cl)cc2Cl)c1 ... 0
CN(C)C(=O)c1ccc(NS(=O)(=O)c2cccc(C(F)(F)F)c2)cc1 ... 0
CCCOC(=O)c1ccc(NS(=O)(=O)c2cccc(C(F)(F)F)c2)cc1 ... 0
Cc1ccc(S(=O)(=O)Nc2ccc(F)cc2)cc1 ... 0
O=[N+]([O-])c1ccc(NS(=O)(=O)c2ccccc2[N+](=O)[O-])cc1 ... 51
O=S(=O)(Nc1ccc(C(F)(F)F)cc1)c1cccc(C(F)(F)F)c1 ... 0
O=[N+]([O-])c1ccc(S(=O)(=O)Nc2cccc([N+](=O)[O-])c2)cc1 ... 0
CCOC(=O)c1ccc(NS(=O)(=O)c2ccc(Cl)cc2)c(Cl)c1 ... 0
O=[N+]([O-])c1ccc(S(=O)(=O)Nc2ccc([N+](=O)[O-])cc2Cl)cc1 ... 0
O=[N+]([O-])c1ccc(NS(=O)(=O)c2ccc([N+](=O)[O-])cc2)cc1 ... 0
O=[N+]([O-])c1cccc(NS(=O)(=O)c2cccc([N+](=O)[O-])c2)c1 ... 0
COc1ccc([N+](=O)[O-])cc1NS(=O)(=O)c1ccc([N+](=O)[O-])cc1 ... 0
Cc1ccc(S(=O)(=O)Nc2c(C)cccc2[N+](=O)[O-])cc1[N+](=O)[O-] ... 26
Cc1cc([N+](=O)[O-])ccc1NS(=O)(=O)c1cccc(C#N)c1 ... 0
O=[N+]([O-])c1cccc(NS(=O)(=O)c2ccccc2[N+](=O)[O-])c1 ... 0
Cc1ccc(S(=O)(=O)Nc2ccc([N+](=O)[O-])cc2C)cc1 ... 0
Cc1ccc([N+](=O)[O-])cc1NS(=O)(=O)c1ccc(C)c([N+](=O)[O-])c1 ... 0
O=S(=O)(Nc1ccccc1Cl)c1cc(C(F)(F)F)ccc1Cl ... 0
Cc1ccc(S(=O)(=O)Nc2ccc(C(F)(F)F)cc2Cl)cc1 ... 51
COC(=O)c1ccc(NS(=O)(=O)c2ccc(Cl)c(C(F)(F)F)c2)c(Cl)c1 ... 0
Cc1ccc(S(=O)(=O)Nc2ccc(C(F)(F)F)cc2)cc1 ... 26
